Value source: BindingDB's records for doi:10.1016/s0960-894x(01)00239-6

Let's go through some IC50 measurements on Gag-Pol polyprotein [588-1027]/[588-1147] (Human immunodeficiency virus 1) together.
Give the value, in units of nM, as a plain number.

# compound C[C@@H]1O[C@](/C=C/C2CC2)(C(F)(F)F)c2c(ccc(F)c2F)NC1=O ; its IC50 = 173

Record summary for C[C@@H]1O[C@](/C=C/C2CC2)(C(F)(F)F)c2cc(Cl)ccc2NC1=O : reported IC50 = 46

Continuing:
Lab note: CC[C@@H]1O[C@](/C=C/C2CC2)(C(F)(F)F)c2cc(F)ccc2NC1=O gave IC50 of 151

compound C[C@@H]1O[C@](/C=C/C2CC2)(C(F)(F)F)c2cc(F)ccc2NC1=O , IC50 observed: 129

GET /value?item= CC[C@@H]1O[C@](/C=C/C2CC2)(C(F)(F)F)c2cc(Cl)ccc2NC1=O &field=IC50 returns 185
